- targetOfAssay: Beta-secretase 1 (Homo sapiens, UniProt P56817)
- Sequence (P56817 whole entry): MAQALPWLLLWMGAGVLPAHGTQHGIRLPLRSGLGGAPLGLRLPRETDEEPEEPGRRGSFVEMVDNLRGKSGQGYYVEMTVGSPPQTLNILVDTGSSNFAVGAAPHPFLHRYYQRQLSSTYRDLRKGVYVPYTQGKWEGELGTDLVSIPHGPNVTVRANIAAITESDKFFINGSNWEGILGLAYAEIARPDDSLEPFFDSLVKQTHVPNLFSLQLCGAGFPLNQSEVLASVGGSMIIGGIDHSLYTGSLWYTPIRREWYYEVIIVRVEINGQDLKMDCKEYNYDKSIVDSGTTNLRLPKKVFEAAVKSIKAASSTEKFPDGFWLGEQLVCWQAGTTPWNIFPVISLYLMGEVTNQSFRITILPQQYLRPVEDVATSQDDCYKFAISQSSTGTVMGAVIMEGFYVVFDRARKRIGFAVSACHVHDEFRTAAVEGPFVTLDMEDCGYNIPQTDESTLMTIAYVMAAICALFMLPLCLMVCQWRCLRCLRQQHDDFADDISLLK
- measurementDescription: Inhibition of BACE1 by HPLC method
pIC50: −log10 of the molar value.
Answer no if pIC50 is under 8, and yes if it is 8 or more.

compound	assignedClass
CCC(C)[C@@]1(NC(C)=O)CCN([C@@H](CCc2ccccc2)C(=O)N[C@@H](Cc2cc(F)cc(F)c2)[C@H](O)[C@H]2C[C@H](O)CN2)C1=O (some centres not stated)	yes
COC[C@H]1CCN([C@@H](C)C(=O)N[C@@H](Cc2cc(F)cc(F)c2)[C@H](O)CNCc2cccc(OC)c2)C1=O	no
CCCO[C@H]1CN[C@@H]([C@@H](O)[C@H](Cc2cc(F)cc(F)c2)NC(=O)[C@H](C)N2CC[C@H](CC(C)C)C2=O)C1	no
CCC(C)[C@@]1(NC(C)=O)CCN([C@@H](CCc2ccccc2)C(=O)N[C@@H](Cc2cc(F)cc(F)c2)[C@H](O)[C@H]2C[C@@H](Oc3ccccn3)CN2)C1=O (some centres not stated)	yes
COc1cccc(CNC[C@@H](O)[C@H](Cc2cc(F)cc(F)c2)NC(=O)[C@H](CCc2ccccc2)N2CC[C@H](C(C)C)C2=O)c1	no
CCC(C)[C@@]1(NC(C)=O)CCN([C@@H](CCc2ccccc2)C(=O)N[C@@H](Cc2cc(F)cc(F)c2)[C@H](O)[C@H]2C[C@@H](OCc3ccccn3)CN2)C1=O (some centres not stated)	yes
CCCO[C@H]1CN[C@@H]([C@@H](O)[C@H](Cc2cc(F)cc(F)c2)NC(=O)[C@H](C)N2CC[C@H]([C@H](O)CCC)C2=O)C1	no
CCC[C@@H](O)[C@H]1CCN([C@@H](C)C(=O)N[C@@H](Cc2cc(F)cc(F)c2)[C@H](O)CNCc2cccc(OC)c2)C1=O	no
